Data origin, for the record: patent US6972319B1

SYSTEM: T1, PACAP-R3 (human, UniProt P41587 24-438)
T1 sequence (looked up): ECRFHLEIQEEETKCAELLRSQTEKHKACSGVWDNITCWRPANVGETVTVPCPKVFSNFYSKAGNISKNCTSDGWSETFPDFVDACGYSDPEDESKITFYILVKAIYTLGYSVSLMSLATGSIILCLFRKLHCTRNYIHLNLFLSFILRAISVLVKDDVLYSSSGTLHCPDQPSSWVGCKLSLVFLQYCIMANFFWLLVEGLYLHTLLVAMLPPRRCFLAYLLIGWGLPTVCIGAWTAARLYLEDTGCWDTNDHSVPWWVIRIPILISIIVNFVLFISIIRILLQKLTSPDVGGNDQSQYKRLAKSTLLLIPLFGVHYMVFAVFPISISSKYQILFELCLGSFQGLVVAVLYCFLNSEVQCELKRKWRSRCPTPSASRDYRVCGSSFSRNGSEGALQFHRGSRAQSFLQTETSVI
ASSAY NAME: cell-based or functional assay
No end group written: not given here.
MEASURED PROPERTY: R3 Selectivity

Would you please look over these solved cases?
In plain terms, HSDAVFTDNYTRLRKQMAVKKYLNSIKKGGT [R3P9] has a documented R3 Selectivity of 20

In plain terms, HSDAVFTDNYTRLRKQMAAKKYLNSIKNLR [R3P142] has a documented R3 Selectivity of 30

In plain terms, HSDAVFTDNYTRLRKQLAVKKYLNSIKKGGT [R3P25] has a documented R3 Selectivity of 20

[I] HSDAVFTDNYTRLRKQMAAKKYLNSIKNHR [R3P140]
[II] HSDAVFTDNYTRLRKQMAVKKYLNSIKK-NH2 [R3P8]
Higher R3 Selectivity: I or II ? Label of pick, please. I
